Could you please report measured Ki for the items listed next?
Target: human GAL1 receptor (Homo sapiens)
Construct: expressed in transfected cells
Sequence (P47211 whole entry): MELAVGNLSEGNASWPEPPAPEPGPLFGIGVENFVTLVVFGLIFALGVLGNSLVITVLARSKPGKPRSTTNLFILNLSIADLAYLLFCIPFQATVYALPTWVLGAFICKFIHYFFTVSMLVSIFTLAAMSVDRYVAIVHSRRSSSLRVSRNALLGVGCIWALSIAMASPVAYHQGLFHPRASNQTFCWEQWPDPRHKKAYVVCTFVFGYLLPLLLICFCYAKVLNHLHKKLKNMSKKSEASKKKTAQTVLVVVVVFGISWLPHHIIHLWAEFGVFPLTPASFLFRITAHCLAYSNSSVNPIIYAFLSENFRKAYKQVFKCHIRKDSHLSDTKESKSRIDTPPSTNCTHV
Assay Name: Radioligand binding at cloned human GAL1 receptor
Test Settings: pyrimidines, Tables 1-3, read-out: Ki (nM) GalR1

Field: Ki. Fill in for each record below.
1. COCCN(CCc1c[nH]c2ccccc12)c1nc(Nc2ccc(C)cc2)cc(N2CCCCC2)n1 [Example 19]
2. CN(CCc1c[nH]c2ccccc12)c1nc(Nc2cccc(F)c2)cc(N2CCCCC2)n1 [Example 14]
3. CCc1ccccc1N1CCN(c2nc(Nc3ccc(C)cc3)cc(N3CCCCC3)n2)CC1 [Example 26]
4. Cc1ccc(Nc2cc(N3CCCCC3)nc(N3CCN(c4cc(C(F)(F)F)ccn4)CC3)n2)cc1 [Example 32]

1: > 5000 nM; 2: > 5000 nM; 3: > 5000 nM; 4: > 5000 nM

Field: Ki. Fill in for each record below.
1. CN(C)c1cc(NC2CCCCC2)nc(Nc2ccccc2)n1 [Example 66]
2. COc1cccc(Nc2cc(N3CCCCC3)nc(N(C)CCc3c[nH]c4ccccc34)n2)c1 [Example 17]
3. Cc1ccc(Nc2cc(N3CCCCC3)nc(NCCc3c[nH]c4ccccc34)n2)cc1 [Example 10]
4. CN(C)c1cc(Nc2cccc(F)c2)nc(Nc2ccccc2)n1 [Example 57]

1: > 5000 nM; 2: > 5000 nM; 3: > 5000 nM; 4: > 5000 nM

Field: Ki. Fill in for each record below.
1. Cc1ccc(Nc2nc(Nc3cccc(C)c3)cc(N(C)C)n2)cc1 [Example 53]
2. Cc1ccc(Nc2cc(N3CCCCC3)nc(N(C)c3ccccc3)n2)cc1 [Example 6]
3. Cc1ccc(Nc2cc(N(C)C)nc(N3CCC(c4ccccc4)CC3)n2)cc1 [Example 81]
4. Cc1ccc(Nc2cc(N3CCCCC3)nc(Nc3ccc(C)cc3)n2)cc1 [Example 4]
5. Cc1ccc(Nc2cc(N3CCCCC3)nc(N3CCc4ccccc43)n2)cc1 [Example 39]
6. Cc1ccc(Nc2cc(N(C)C)nc(N3CCC(O)(c4ccccc4)CC3)n2)cc1 [Example 80]
7. Cc1ccc(Nc2cc(N3CCCCC3)nc(N3CCCc4ccccc43)n2)cc1 [Example 40]

["> 5000 nM", "> 5000 nM", "> 5000 nM", "> 5000 nM", "> 5000 nM", "> 5000 nM", "> 5000 nM"]

Data credit: patent US20040110821A1
